Where do these numbers come from? They come from paper PMC4336329.

# study_system: human ether-à-go-go-related gene (hERG) potassium channel (human, UniProt Q12809)
# Sequence (Q12809 whole entry, looked up): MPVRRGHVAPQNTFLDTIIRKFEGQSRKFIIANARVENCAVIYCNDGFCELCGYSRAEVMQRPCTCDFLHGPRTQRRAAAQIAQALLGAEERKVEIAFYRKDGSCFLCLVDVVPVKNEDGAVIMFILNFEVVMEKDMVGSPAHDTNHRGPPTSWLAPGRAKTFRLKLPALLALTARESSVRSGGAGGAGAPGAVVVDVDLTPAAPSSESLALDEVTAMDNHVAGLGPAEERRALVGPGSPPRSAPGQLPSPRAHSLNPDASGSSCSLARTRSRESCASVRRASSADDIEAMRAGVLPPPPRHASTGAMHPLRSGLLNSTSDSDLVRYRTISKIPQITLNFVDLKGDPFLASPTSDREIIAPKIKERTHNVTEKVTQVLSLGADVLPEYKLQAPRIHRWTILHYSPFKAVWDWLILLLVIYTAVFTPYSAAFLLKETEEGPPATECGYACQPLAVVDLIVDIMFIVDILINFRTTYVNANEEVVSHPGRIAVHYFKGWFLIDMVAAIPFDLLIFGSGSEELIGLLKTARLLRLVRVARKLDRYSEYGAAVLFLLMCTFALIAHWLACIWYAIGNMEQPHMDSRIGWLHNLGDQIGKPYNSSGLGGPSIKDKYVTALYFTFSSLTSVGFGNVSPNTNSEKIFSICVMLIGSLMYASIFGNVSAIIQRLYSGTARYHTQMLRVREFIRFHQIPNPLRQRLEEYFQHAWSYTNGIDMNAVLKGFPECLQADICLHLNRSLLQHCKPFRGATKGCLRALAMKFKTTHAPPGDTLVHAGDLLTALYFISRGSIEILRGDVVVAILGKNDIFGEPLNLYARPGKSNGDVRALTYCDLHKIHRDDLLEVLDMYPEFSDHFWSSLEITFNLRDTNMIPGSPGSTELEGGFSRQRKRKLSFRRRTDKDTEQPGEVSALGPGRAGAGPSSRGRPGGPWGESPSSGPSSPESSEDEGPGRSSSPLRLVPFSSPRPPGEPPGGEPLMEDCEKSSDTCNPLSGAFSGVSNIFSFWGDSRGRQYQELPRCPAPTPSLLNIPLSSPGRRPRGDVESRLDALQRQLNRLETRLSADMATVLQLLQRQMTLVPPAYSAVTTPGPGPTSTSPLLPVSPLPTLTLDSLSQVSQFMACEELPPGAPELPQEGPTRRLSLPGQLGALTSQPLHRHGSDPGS
# assay_overview: primary screen, population patch clamp on CHO cells stably expressing hERG; higher = less effect of the substance
Screen size: about 310,000 compounds; about 14,000 (4.5%) showed an effect of 50% or more. The effect is printed as a negative number. The full list was thinned out, with strong results kept by preference.
Below is a list of entries, each paired with its recorded hERG current change (%, negative = inhibition) at 10uM value.
Quick note: number first, unit second.

Some solved cases for reference:
- molecule: "Cn1c(=O)c2nc(-c3ccccc3)oc2c2ccccc21"
  value_measured: "-1.46%"
- molecule: "COCCc1nn2c(=O)cc(COC(=O)c3cc(OC)c(OC)c(OC)c3)nc2s1"
  value_measured: "-22.6%"
- molecule: "NC(=O)c1nc(C(=O)N2CCN(c3ccccc3)CC2)c2ccccc2n1"
  value_measured: "2.14%"
- molecule: "COCc1c(C(=O)Nc2ccc3nc(N4CCOCC4)sc3c2)oc2ccccc12"
  value_measured: "-31.2%"
- molecule: "COCc1c(C(=O)N2CCN(S(=O)(=O)c3ccccc3Cl)CC2)oc2ccccc12"
  value_measured: "-13.9%"

Please respond with reported hERG current change (%, negative = inhibition) at 10uM (system human ether-à-go-go-related gene (hERG) potassium channel (human, UniProt Q12809)) for Cc1ccc(CNC(=O)CN2CCCC(C)C2)cc1 (centres unmarked) .
-29.7%

Please respond with reported hERG current change (%, negative = inhibition) at 10uM (system human ether-à-go-go-related gene (hERG) potassium channel (human, UniProt Q12809)) for `CC(=O)Nc1ccc(S(=O)(=O)NCCC(=O)Nc2ccc(C)c(F)c2)cc1` .
-0.433%

Please respond with reported hERG current change (%, negative = inhibition) at 10uM (system human ether-à-go-go-related gene (hERG) potassium channel (human, UniProt Q12809)) for COc1ccc2nc(N3C(=O)CC(Cc4cc(C)cc(C)c4)C3=O)sc2c1 (centres unmarked) .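 Note: peak tail current of the secondary pulse compared with the same well before compound.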
9.23%

Please respond with reported hERG current change (%, negative = inhibition) at 10uM (system human ether-à-go-go-related gene (hERG) potassium channel (human, UniProt Q12809)) for `Cl.N=c1n(CCO)c2ccccc2n1Cc1ccccc1Cl` .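 Note: peak tail current of the secondary pulse compared with the same well before compound.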
-20%

Please respond with reported hERG current change (%, negative = inhibition) at 10uM (system human ether-à-go-go-related gene (hERG) potassium channel (human, UniProt Q12809)) for Cl.N=c1n(Cc2ccccc2Cl)c2ccccc2n1CC(O)c1ccco1 (centres unmarked) .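 Note: peak tail current of the secondary pulse compared with the same well before compound.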
-56.7%

---

# study_system: human ether-à-go-go-related gene (hERG) potassium channel (human);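 note: peak tail current of the secondary pulse compared with the same well before compound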
# assay_overview: primary screen, population patch clamp on CHO cells stably expressing hERG; higher = less effect of the substance
Among all 310,000 compounds or so, about 14,000 (4.5%) showed an effect of 50% or more. Effects have a minus sign here. The list comes from a sample in which strong results are over-represented; it also holds close analogues and randomly drawn compounds.
test_readout: hERG current change (%, negative = inhibition) at 10uM (%)
Field: numeric (%). Do not append units.

- compound: "Cc1c(CCOC(=O)CC23CC4CC(CC(C4)C2)C3)sc[n+]1CC(=O)c1ccccc1.[Br-]"
  units_text: "%"
  value_measured: -59.4

Provide one value: measured hERG current change (%, negative = inhibition) at 10uM of `Cc1ccc(C(=O)NNC(=O)c2ccncc2)cc1S(=O)(=O)N1CCOCC1`
0.578
